Source listed as ChEMBL document CHEMBL3507680.

Entries annotated with measured cytotoxicity at 70.5 h
assay: Human HepG2 cell viability assay in 384 well format; assay type: toxicity, cell-based; set-up: dose 125 nL, time 70.5 hour; concentration not given beside the values; settings: HepG2 cells, read-out: Inhibition
Write down the numeric answer in % and omit the unit.

Compound | Measured Result
N[C@@H]1CCN(Cc2cccc(N3CCOCC3)c2)C[C@H]1O | 26.8
COc1ccc(C(=O)n2nc(C)c(C)c2C)cc1 | -2.07
COC(=O)CCNC(=O)c1nnn(-c2ccccc2)c1C(F)(F)F | 0.121
CN1CCN(Cc2ccccc2Cl)CC12CCC(=O)N(CC1CC1)CC2 (configuration not stated) | 0.313
CC(C)c1cccc(S(=O)(=O)NCCCN2CCC(O)CC2)c1 | 3.11
COCCN(Cc1cnn(C)c1)CC1CCOC1 (configuration not stated) | -6.85

INPUT: So what does the record say about cytotoxicity at 70.5 h for O=c1[nH]c2cc3c(cc2cc1CN1CCCC1c1ccccn1)OCO3 (configuration not stated) ?
OUTPUT: -4.33

INPUT: Look up cytotoxicity at 70.5 h: `Cc1ccccc1OCn1ccc(C(=O)NCCN2CCOCC2)n1`
OUTPUT: -12.2

INPUT: Which cytotoxicity at 70.5 h value is on record for `CCc1noc(CN(C)C(=O)COc2cccc(Cl)c2C)n1` ?
OUTPUT: -6.73

INPUT: Item `Cc1cccnc1NC(=O)c1ccc(-n2cncn2)nn1` has what recorded cytotoxicity at 70.5 h?
OUTPUT: 1.65

INPUT: Which cytotoxicity at 70.5 h is listed for COCC(c1ccccn1)N(C)C(=O)c1cc(-c2ccc(O)cc2)n[nH]1 (configuration not stated) ?
OUTPUT: -1.31

INPUT: Please give the measured cytotoxicity at 70.5 h for this compound: Cc1nn(C)cc1S(=O)(=O)NCC(c1ccccc1Cl)N1CCCC1 (configuration not stated)
OUTPUT: -6.74
